Sourced from ChEMBL document CHEMBL1201862

# Test system: DMS-114
# assayName: NCI tumour cell line growth inhibition, 48 h
Active and inactive are the calls of the source. Rule as the data show it: active = GI50 up to about 1.1 µM and inactive = higher.
Pick one and only one: true (1) for active, false (0) for inactive

Example entries and their recorded answers appear below.
[
  {
    "molecule": "Cc1cc(O)nc(NNC(C#N)c2ccc(N(C)C)cc2)n1 (stereo unspecified)",
    "answerLabel": "false (0)"
  },
  {
    "molecule": "CC(C)CCCCCCCCCCCCC(=O)NCC(=O)NC1C(C)OC(Nc2[nH]cnc3ncnc2-3)C(O)C1O (stereo unspecified)",
    "answerLabel": "true (1)"
  },
  {
    "molecule": "CS(=O)(=O)NNS(=O)(=O)c1ccccc1",
    "answerLabel": "false (0)"
  },
  {
    "molecule": "O=C1C2Nc3ccccc3SC2C(=O)N1c1cccc([N+](=O)[O-])c1 (stereo unspecified)",
    "answerLabel": "false (0)"
  },
  {
    "molecule": "CCOc1ccc(NC(=O)CC2SC(Nc3ccc(C)cc3)=NC2=O)cc1 (stereo unspecified)",
    "answerLabel": "false (0)"
  }
]

Assay outcome for O=C(NNC(=S)Nc1ccccc1)c1nsc2ccccc12 : what was it?
false (0)

Try this molecule next: COc1ccccc1NC(=O)CC(=O)NNCC(=O)Nc1nc(-c2ccccc2)cs1
false (0)

Try this molecule next: COc1ccc2cc3n(c2c1)CCc1cc(OC)c(OC)cc1-3
false (0)

Try this molecule next: CNS(=O)(=O)NN(C)S(=O)(=O)c1ccc2ccccc2c1
false (0)

Try this molecule next: O=C1C(Nc2ccc(S(=O)(=O)Nc3cnc4ccccc4n3)cc2)=C/C(=N\c2ccc(S(=O)(=O)Nc3cnc4ccccc4n3)cc2)c2ccccc21
false (0)

====

# Tested on: HL-60
# assayName: NCI tumour cell line growth inhibition, 48 h
Active and inactive are the calls of the source. Cut-off read from the data, not from the text of the source: active = GI50 up to about 1.1 µM and inactive = higher.
Pick one and only one: active, inactive

[
  {
    "compound": "COC(=O)/C=C(/C(=O)OC)c1c(C)cc2c(C)cc(C)cc(C)c1-2",
    "answerLabel": "inactive"
  },
  {
    "compound": "CSc1ccc2c(c1)N(CCCN(C)C)c1ccccc1S2",
    "answerLabel": "inactive"
  },
  {
    "compound": "c1ccc2c(OCCSCCCCCCCCCCSCCOc3cccc4ccccc34)cccc2c1",
    "answerLabel": "inactive"
  }
]

Assay outcome for O=C(CSSCC(=O)OCCS(=O)(=O)Nc1ccc(Br)cc1)OCCS(=O)(=O)Nc1ccc(Br)cc1 : what was it?
inactive

Try this compound next: O=C(CSC1=NC(=O)C2(NN1)c1ccccc1-c1ccccc12)NC(=S)Nc1ccccc1
inactive

Try this compound next: CC(=O)NS(=O)(=O)c1ccc(NC(=O)COC(=O)c2cccc3c(=O)c4ccccc4[nH]c23)cc1
inactive

Try this compound next: O=C1c2ccccc2-c2nc(-c3cccs3)cc3c2c1nc1ccccc13
inactive

Try this compound next: COC1CC(n2cnc3c(N)ncnc32)OC1CO (centres undefined)
inactive

Try this compound next: CN(C)C(=O)Oc1c(Br)cc(Br)cc1C(=O)OCc1ccccc1
inactive

Try this compound next: COc1ccc2c(c1)CC[C@@H]1C2CC[C@]2(C)C(=N\O)/C(=N/O)CC12 (some centres undefined)
inactive

====

# Tested on: UACC-257
# assayName: NCI tumour cell line growth inhibition, 48 h
The source made the active and inactive calls. No stated cut-off is given here; in the data, active = GI50 up to about 1.1 µM and inactive = higher.
What GI50 was measured for each of the following?

[
  {
    "compound": "CSCCC(NCc1c(O)ccc2ccc(=O)oc12)C(=O)O (stereo not drawn)",
    "observedResult": "> 100 µM (inactive)"
  },
  {
    "compound": "CCOc1ccc(NC(=S)N/C=C(/C(C)=O)C(=O)Nc2ccccc2C)cc1",
    "observedResult": "> 100 µM (inactive)"
  }
]

Next item in the queue.
# lookup: GI50 of CN1CCN(c2ccc3nc(C4=C(O)C(=O)[C@@H]5C(=C4O)N=C(CO)N5C)[nH]c3n2)CC1
> 100 µM (inactive)
